Molecular target: PTP1B (Homo sapiens, UniProt P18031)
Construct: purchased Sigma Chemical (Merck KGaA, Darmstadt, Germany)
Sequence (P18031 1-322 limits assumed): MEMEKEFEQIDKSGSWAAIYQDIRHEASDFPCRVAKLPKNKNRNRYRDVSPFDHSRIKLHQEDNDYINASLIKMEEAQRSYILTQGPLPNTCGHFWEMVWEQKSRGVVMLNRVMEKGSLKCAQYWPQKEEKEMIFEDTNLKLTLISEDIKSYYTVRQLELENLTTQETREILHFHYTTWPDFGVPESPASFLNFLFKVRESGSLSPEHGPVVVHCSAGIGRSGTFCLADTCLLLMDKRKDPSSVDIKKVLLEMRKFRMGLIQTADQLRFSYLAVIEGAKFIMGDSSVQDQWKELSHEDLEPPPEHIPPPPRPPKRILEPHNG
Experiment: PTP1B inhibitory assay (phosphate-based detection reagent, absorbance at 620 nm)
Format: biochemical
Details: means ± SD (n = 3); test concentration of the compounds not given
Parameter measured: PTP1B inhibition ratio (%)
# unit: % | format: bare number

Below, 5 compounds whose answers are already recorded.
[[record]]
compound = "O=C1C/C=C/CCc2ccc(O)c(c2)-c2cc(ccc2O)C1"
value_measured = 10.37

[[record]]
compound = "COc1ccc(CC/C=C\\C=C\\Cc2ccc(O)cc2)cc1"
value_measured = -12.94

[[record]]
compound = "Oc1ccc2cc1Oc1ccc(cc1)C[C@H](O)/C=C\\C=C\\C2"
value_measured = 11.32

[[record]]
compound = "Oc1ccc2cc1Oc1ccc(cc1)CC/C=C\\C=C\\C2"
value_measured = -3.47

[[record]]
compound = "Oc1ccc2cc1Oc1ccc(cc1)CC=CC=CC(O)C2 (centres unmarked)"
value_measured = -9.47


Prompt: Annotate the compound Oc1ccc(C/C=C/C=C\CCc2ccc(O)cc2)cc1 with its measured PTP1B inhibition ratio (%).
Completion: -0.28

Prompt: Please give measured PTP1B inhibition ratio (%) of the following entry: COc1ccc(/C=C/C/C=C/CCc2ccc(OC)cc2)cc1
Completion: -26.62

Prompt: Provide measured PTP1B inhibition ratio (%) value, entry: COC1c2ccc(O)c(c2)Oc2ccc(cc2)CCC=CCC1O (centres unmarked)
Completion: 19.07

Reference source for all entries: paper PMC9184688
